Molecular target: phosphor-Axl (Homo sapiens (Human))
Sequence (P30530 26-894): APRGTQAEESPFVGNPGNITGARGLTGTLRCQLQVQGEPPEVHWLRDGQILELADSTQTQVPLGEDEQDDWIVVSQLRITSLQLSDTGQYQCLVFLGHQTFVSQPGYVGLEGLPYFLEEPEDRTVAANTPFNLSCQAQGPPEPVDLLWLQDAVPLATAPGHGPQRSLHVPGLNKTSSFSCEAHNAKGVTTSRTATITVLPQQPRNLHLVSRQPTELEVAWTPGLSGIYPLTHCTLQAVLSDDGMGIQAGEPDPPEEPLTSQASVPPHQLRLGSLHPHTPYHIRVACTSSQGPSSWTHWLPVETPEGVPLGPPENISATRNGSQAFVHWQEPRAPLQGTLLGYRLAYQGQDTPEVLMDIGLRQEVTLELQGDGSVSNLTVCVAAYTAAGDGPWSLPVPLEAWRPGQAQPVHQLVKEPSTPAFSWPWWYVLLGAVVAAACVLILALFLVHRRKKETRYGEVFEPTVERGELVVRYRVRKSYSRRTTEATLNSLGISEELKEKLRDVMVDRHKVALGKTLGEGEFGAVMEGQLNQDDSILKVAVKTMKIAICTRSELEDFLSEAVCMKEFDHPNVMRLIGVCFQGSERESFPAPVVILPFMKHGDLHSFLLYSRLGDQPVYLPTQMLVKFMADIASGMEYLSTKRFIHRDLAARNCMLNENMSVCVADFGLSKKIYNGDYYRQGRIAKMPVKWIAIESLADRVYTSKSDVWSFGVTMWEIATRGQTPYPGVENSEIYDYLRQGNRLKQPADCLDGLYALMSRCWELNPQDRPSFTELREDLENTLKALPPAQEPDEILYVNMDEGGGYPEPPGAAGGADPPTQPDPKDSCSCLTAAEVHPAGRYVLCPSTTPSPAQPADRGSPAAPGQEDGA
Assay: TAM Kinase Assay (HTRF), phosphor-Axl;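 further: test enzyme was recombinant Axl protein, pre-activated by autophosphorylation with ATP and MgCl2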
Assay type: biochemical
Settings: 5.1 nM phosphor-Axl, HTRF, 60 min room temperature; read-out: Phospho-Axl IC50
REPORTED_PROPERTY: IC50

Known results for compounds:
Name the recorded IC50 for COCC1(c2cccc(-c3ncnc4[nH]ccc34)c2)Cc2ccccc2C1 .
1000 to 3000 nM

Name the recorded IC50 for NCC1(c2cccc(-c3ncnc4[nH]ccc34)c2)Cc2cccnc2C1 (centres unmarked) .
< 500 nM

Name the recorded IC50 for O=C(NCC1(c2cccc(-c3ncnc4[nH]ccc34)c2)Cc2ccccc2C1)C1CCC1 .
< 500 nM

Name the recorded IC50 for O=C(NCC1(c2cccc(-c3ncnc4[nH]ccc34)c2)Cc2ccccc2C1)C1CC1 .
< 500 nM

Name the recorded IC50 for NCC1(c2ccnc(-c3ncnc4[nH]ccc34)c2)Cc2ccccc2C1 .
500 to 1000 nM

Name the recorded IC50 for CNCC1(c2cccc(-c3ncnc4[nH]ccc34)c2)Cc2ccccc2C1 .
< 500 nM

Name the recorded IC50 for O=C(NCC1(c2cccc(-c3ncnc4[nH]ccc34)c2)Cc2ccccc2C1)c1ccno1 .
> 3000 nM

Lab note: next compound to report on.
Name the recorded IC50 for O=C(NCC1(c2cccc(-c3ncnc4[nH]ccc34)c2)Cc2ccccc2C1)c1cccs1 .
1000 to 3000 nM
